Provide the reported GI50 of each item.
Tested on: UACC-62
Protocol notes: NCI tumour cell line growth inhibition, 48 h
Activity calls are given as the source filed them. Rule as the data show it: active = GI50 up to about 1.1 µM and inactive = higher.

Example entries begin here.
Compound | GI50
O=C(CCc1ccc(O)cc1)NCCCNC(=O)CCc1ccc(O)cc1 | > 100 µM (inactive)
O=[N+]([O-])c1ccc2c(c1)c(S(=O)(=O)O)cc1nonc12 | > 100 µM (inactive)
O=C(O)C1(C(=O)O)CC1 | > 100 µM (inactive)

Your task in this section: give GI50 for each listed record.
1. S=C1N=C(Cl)/C(=C\c2ccco2)N1
2. CSc1scc2c1/C(=N/NC(N)=O)CCC2
3. O=C(NCc1ccccc1)c1cc2cc(O)c(O)cc2cn1
4. OC(CC(CC(O)(C(F)(F)Cl)C(F)(F)Cl)=NNc1ccccc1)(C(F)(F)Cl)C(F)(F)Cl
5. CC(C)C1=CC23CCC4C(C)(C(=O)O)CCCC4(C)C2CC1C1C(=O)N(c2ccccc2)C(=O)C13 (configuration not stated)
6. OC(CC(c1ccccc1)c1ccc(Cl)cc1)c1ccc(Cl)cc1 (configuration not stated)
7. CCCCCCCCCCCCCCCC1(OC)C[N+](C)(C)CCO1 (configuration not stated)

[out]
1. > 100 µM (inactive)
2. > 100 µM (inactive)
3. 16.6 µM (inactive)
4. 1.66 µM (inactive)
5. 38.6 µM (inactive)
6. 30.3 µM (inactive)
7. 2.76 µM (inactive)

Your task in this section: give GI50 for each listed record.
1. CC1=NC(C)(COC(=O)C2(C)NC(C)(CO)CO2)COC1=O (configuration not stated)
2. CC(C)(C)CC(C)(C)N/C(N)=N/O

[out]
1: > 100 µM (inactive); 2: > 100 µM (inactive)

* * *

System: COLO 205
Protocol notes: NCI tumour cell line growth inhibition, 48 h
Active and inactive are the calls of the source. Rule as the data show it: active = GI50 up to about 1.1 µM and inactive = higher.
Just give me one of these, please: true (active), false (inactive)

Use the examples below as a reference point.
Compound | Target desc | Class
O=C(CSc1nnc(-c2ccc(/N=C\c3ccc(Cl)cc3)cc2)o1)Nc1ccc([N+](=O)[O-])cc1 | COLO 205 | false
CCOc1ccc2c(ccc(/C=C/c3cc(C)c4cccnc4c3O)[n+]2C)c1 | COLO 205 | true
FC(F)(F)c1ccccc1/C=N/C12CC3CC(CC(C3)C1)C2 | COLO 205 | false

Continue with the compound presented below.
[in] Which outcome was entered for the compound CC(=O)N1N=C(c2ccc3ccccc3c2O)CC1c1cccs1 (configuration not stated) in this test?
[out] false

* * *

Provide the reported GI50 of each item.
Tested on: COLO 205
Protocol notes: NCI tumour cell line growth inhibition, 48 h
The source made the active and inactive calls. Cut-off read from the data, not from the text of the source: active = GI50 up to about 1.1 µM and inactive = higher.

Example entries begin here.
Molecule | GI50
CC(CCC=O)CCOCc1ccccc1 (centres undefined) | > 100 µM (inactive)
CCNC1CC(n2cc(C)c(=O)[nH]c2=O)OC1CO (centres undefined) | > 100 µM (inactive)
CO/C(=N\N=C\c1ccc(Cl)c(Cl)c1)c1ccncc1 | > 10 µM (inactive)
CCN(CC)CCC(=O)c1ccc(Oc2ccc(C)cc2)cc1 | 23.4 µM (inactive)
O=P(O)(O)CN1CCNCCN(CP(=O)(O)O)CCNCC1 | 5.13 µM (inactive)

Your task in this section: give GI50 for each listed record.
1. COc1cc(OC)cc(OCc2ccc3nc(-c4ccccc4)c(Cl)nc3c2)c1
2. Cc1ccc(S(=O)(=O)n2cc(C#N)c(C#N)c2)cc1
3. Fc1ccc(C(OCCN2CCC3CCC(C2)N3C/C=C/c2ccco2)c2ccc(F)cc2)cc1 (centres undefined)

[out]
1. 25.2 µM (inactive)
2. 28.6 µM (inactive)
3. 1.69 µM (inactive)

[in] Query (molecule): N#Cc1nc(CCC(C(=O)O)N2C(=O)c3ccccc3C2=O)oc1N (centres undefined) ; field requested: GI50
[out] > 100 µM (inactive)

* * *

Test system: SW-620
Protocol notes: NCI tumour cell line growth inhibition, 48 h
Active and inactive are the calls of the source. Cut-off read from the data, not from the text of the source: active = GI50 up to about 1.1 µM and inactive = higher.
Provide the reported GI50 of each item.

Molecule | GI50
CCOc1ccc2nc3nc(O)nc(C)c3c(NCCCN(CC)CC)c2c1 | > 100 µM (inactive)
O=S(=O)(c1cccc(C(F)(F)F)c1)N1c2ccccc2-n2cccc2C1c1cccnc1 (stereo not drawn) | 16.5 µM (inactive)

Then there is this molecule:
[in] Query (molecule): OC(CC(c1ccccc1)c1ccc(Cl)cc1)c1ccc(Cl)cc1 (stereo not drawn) ; field requested: GI50
[out] 40.7 µM (inactive)

* * *

Test system: HCT-15
Protocol notes: NCI tumour cell line growth inhibition, 48 h
Assay readout: GI50 (µM)
Give bare numbers, in µM.

Compound | Target desc | GI50 / µM
COc1ccc(C2=NN(C(=N)S)C(c3ccccc3)C2)cc1 (stereo not given) | HCT-15 | 33.6

Then there is this compound:
[in] Query (compound): Cc1cc(Cl)ccc1NC(=O)C(=O)C(C(=O)c1ccc2ccccc2c1)C1OC(=O)c2ccccc21 (stereo not given) ; field requested: GI50
[out] 18.7

* * *

Test system: BT-549
Protocol notes: NCI tumour cell line growth inhibition, 48 h
The source made the active and inactive calls. Rule as the data show it: active = GI50 up to about 1.1 µM and inactive = higher.
Just give me one of these, please: TRUE for active, FALSE for inactive

Use the examples below as a reference point.
Compound | Class
Cc1ccc(S(=O)(=O)OC2CN3CCC2CC3)cc1 (stereo not given) | FALSE
NCCNS(=O)(=O)c1ccc(N)cc1 | FALSE
ClC(Cl)=C1C(=C(Cl)Cl)C(Cl)(Cl)C1(Cl)Cl | FALSE
COc1ccc(N[S+]([O-])c2ccc(Cl)cc2)cc1 (stereo not given) | TRUE

Continue with the compound presented below.
[in] Which outcome was entered for the compound `Cn1c(COC(=O)NC2CCCCC2)c(COC(=O)NC2CCCCC2)c2ccc3cc(C=O)ccc3c21` in this test?
[out] FALSE

* * *

Test system: UO-31
Protocol notes: NCI tumour cell line growth inhibition, 48 h
Activity calls are given as the source filed them. No stated cut-off is given here; in the data, active = GI50 up to about 1.1 µM and inactive = higher.
Assay readout: GI50

Example entries begin here.
Smiles notation | GI50
O=C(OCc1ccccc1)n1cccc1 | 46.3 µM (inactive)
COC1=CC(=O)C2=C(C[C@@]3(C)C(=C2)C(CO)=CC[C@H]3O)C1=O | 20 µM (inactive)
Cn1c(COC(=O)NC2CCCCC2)c(COC(=O)NC2CCCCC2)c2ccc3cc(C=O)ccc3c21 | > 100 µM (inactive)

Then there is this compound:
[in] Query (compound): `COc1ccc(/C=C(\C(=O)OCC(C)C)c2ccc(OC)c(OC)c2)cc1OC` ; field requested: GI50
[out] > 100 µM (inactive)

* * *

System: HOP-18
Protocol notes: NCI tumour cell line growth inhibition, 48 h
Activity calls are given as the source filed them. Rule as the data show it: active = GI50 up to about 1.1 µM and inactive = higher.
Just give me one of these, please: T for active, F for inactive

Compound | Class
COC(=O)CCC12CCC(=O)C1[C@@H](C(=O)OC)C[C@H]2C(=O)OC (stereo not given in full) | F
CSc1nc(NC2OCC(OC(C)=O)C(OC(C)=O)C2OC(C)=O)c(/N=C\C=N\c2c(NC3OCC(OC(C)=O)C(OC(C)=O)C3OC(C)=O)nc(SC)[nH]c2=O)c(=O)[nH]1 (stereo not given) | F
COC1C(=[N+]=[N-])C(=O)NC(=O)N1C1OC(COC(c2ccccc2)(c2ccccc2)c2ccccc2)C(O)C1O (stereo not given) | F
O=C(CSc1nnc(-c2ccc(/N=C\c3ccc(Cl)cc3)cc2)o1)Nc1cccc([N+](=O)[O-])c1 | F
O=C(OCc1ccccc1)n1cccc1 | F

[in] Which outcome was entered for the compound CCOC(=O)C1C2CCC(C2)C1(CCl)C(=O)OCC (stereo not given) in this test?
[out] F

[in] Lookup C/C(=N\NC(=S)NC(CCC(=O)O)C(=O)O)c1ccccn1 (stereo not given)
[out] F

[in] Lookup `Cc1c(C(=O)C/C(=N/NC(=O)C[N+](C)(C)C)C(=O)Nc2ccc(Cl)cc2)[n+]([O-])c2ccccc2[n+]1[O-]`
[out] F

* * *

Provide the reported GI50 of each item.
System: NCI/ADR-RES
Protocol notes: NCI tumour cell line growth inhibition, 48 h
Active and inactive are the calls of the source. No stated cut-off is given here; in the data, active = GI50 up to about 1.1 µM and inactive = higher.

Example entries begin here.
Compound | Assay readout | Result
CCC(=O)N(c1ccccc1)C(C)CN1CCC(O)(c2ccccc2)CC1 (centres undefined) | GI50 | > 100 µM (inactive)
CCOC(=O)/C=C(\C(=O)OCC)n1cc(C)c(=O)n(Cc2cnnn2COCCOC(C)=O)c1=O | GI50 | 16.1 µM (inactive)

Your task in this section: give GI50 for each listed record.
1. CCCCCCCCCCCCCCCC1(OC)C[N+](C)(C)CCO1 (centres undefined)
2. CC(CCC(=O)O)[C@H]1CCC2[C@H]3C(CC(=O)[C@@]21C)[C@@]1(C)CCC(O)C[C@H]1C[C@@H]3O (some centres undefined)
3. CC1=NC(C)(COC(=O)C2(C)NC(C)(CO)CO2)COC1=O (centres undefined)
4. COC(=O)/C=C1\C(CO[Si](C)(C)C(C)(C)C)OC(n2ccc(=O)[nH]c2=O)C1O (centres undefined)
5. CC(=O)OC[C@@]12CC[C@H]3C(C)(C)CCC[C@]3(C)[C@H]1C[C@@H](C1=CC(=O)O[C@H]1O)O2
6. O=c1/c(=C/c2ccc([N+](=O)[O-])o2)sc2n1[C@@H](c1ccc(Cl)cc1)C=C(c1cc(F)c(Cl)cc1Cl)N=2
7. O=C(/C=C1/Nc2ccc([N+](=O)[O-])cc2N/C1=C/C(=O)c1ccc(Cl)cc1)c1ccccc1

[out]
17.9 µM (inactive)
> 100 µM (inactive)
> 100 µM (inactive)
10.4 µM (inactive)
4.5 µM (inactive)
30.8 µM (inactive)
60.3 µM (inactive)
